- TARGET ENTITY: Cys12 of the KRAS 4B G12C protein (Homo sapiens, UniProt P01116, G12C)
- Construct: This protein contained 188 amino acids in total, including an N-terminal 6-Histidine tag; made in house; host or cells: E. coli BL21
- ASSAY NAME: In vitro covalent adduct formation (CAF) assay, LC-MS intact mass
- Assay type: binding
- RUN PARAMETERS: 10 μM compound, after 1 hour
- Method: This Example provides a protocol for assessing covalent adduct formation (CAF) between the compounds of the present application and KRAS. In vitro covalent adduct formation assay: Covalent adduct formation (CAF) reactions between Cys12 of the KRAS 4B G12C protein and some of the compounds of Tables 1 to 4 were measured in vitro using liquid chromatography-mass spectrometry (LC-MS). Recombinant Human KRAS 4B protein containing the G12C mutation was used in compound screening experiments. […]
Known CAF (% after 1 hour) of a selection of molecules
Return type: number; implicit unit %.

Examples from the recorded data:
RECORD SMILES | UNIT ABBREV | MEASUREMENT
C=CC(=O)N1[C@H](C)CN(c2nc(=O)n3c4c(c(-c5ccc(F)cc5C(N)=O)c(C(F)(F)F)cc24)SC[C@@H](OC)C3)C[C@@H]1C | % | 69
C=CC(=O)N1[C@H](C)CN(c2nc(=O)n3c4c(c(-c5ccc(F)cc5)c(C(F)(F)F)cc24)SC[C@@H](OCC(=O)N(C)C)C3)C[C@@H]1C | % | 93
C=CC(=O)N1[C@H](C)CN(c2nc(=O)n3c4c(c(-c5ccc(F)cc5)c(C(F)(F)F)cc24)SC[C@@H](OCC(N)=O)C3)C[C@@H]1C | % | 95
C=CC(=O)N1[C@H](C)CN(c2nc(=O)n3c4c(c(-c5ccc(F)cc5)c(C(F)(F)F)cc24)SC[C@@H](OCC)C3)C[C@@H]1C | % | 95
C=C(F)C(=O)N1[C@H](C)CN(c2nc(=O)n3c4c(c(-c5ccc(F)cc5)c(C(F)(F)F)cc24)SC[C@@H](OC)C3)C[C@@H]1C | % | 59

Read the next record carefully.
input: What does the record list as CAF (% after 1 hour) for `C=CC(=O)N1[C@H](C)CN(c2nc(=O)n3c4c(c(-c5cc(C(F)(F)F)ns5)c(C(F)(F)F)cc24)SC[C@@H](OC)C3)C[C@@H]1C` ?
output: 95
